target: 5-hydroxytryptamine receptor 2C (Homo sapiens); test: Antagonist activity at cloned human 5-hydroxytryptamine 2C receptor using [3H]mesulergine radioligand
Sequence (P28335 whole entry): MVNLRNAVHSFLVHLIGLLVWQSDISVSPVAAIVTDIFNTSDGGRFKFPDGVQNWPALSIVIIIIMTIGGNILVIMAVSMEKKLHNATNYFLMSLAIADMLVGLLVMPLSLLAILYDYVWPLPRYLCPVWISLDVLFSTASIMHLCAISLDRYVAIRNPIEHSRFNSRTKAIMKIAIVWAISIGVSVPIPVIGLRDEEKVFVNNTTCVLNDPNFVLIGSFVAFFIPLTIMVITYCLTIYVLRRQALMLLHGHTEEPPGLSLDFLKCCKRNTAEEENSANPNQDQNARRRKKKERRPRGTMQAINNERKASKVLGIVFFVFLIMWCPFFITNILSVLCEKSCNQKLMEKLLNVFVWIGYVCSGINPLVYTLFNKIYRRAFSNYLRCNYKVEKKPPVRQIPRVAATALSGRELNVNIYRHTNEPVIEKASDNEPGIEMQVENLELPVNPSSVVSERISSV
# key: entry, value: pKi
Recall that pKi is obtained by taking minus log10 of the concentration measured in molar.

[[record]]
compound = "COc1cc(CCN)c2c(c1OC)OCC2"
endpoint_result = 5.96


Let us move to another entry and its pKi.
Given item `COc1c2c(c(CCN)c3c1OCC3)CCO2` , the value recorded as its pKi is 6.18

====

biological target: 5-hydroxytryptamine receptor 2C (Homo sapiens); experiment: Agonist activity at cloned human 5-hydroxytryptamine 2C receptor using [125I]DOI radioligand; format: binding
# key: entry, value: Ki

[[record]]
compound = "COc1c2c(c(CCN)c3c1OCC3)CCO2"
tested_on = "5-hydroxytryptamine receptor 2C (Homo sapiens)"
endpoint_result = "61.5 nM"


# value of Ki, 5-hydroxytryptamine receptor 2C (Homo sapiens), item `CCOc1c(OC)cc(CCN)cc1OC` = 177 nM

# value of Ki, 5-hydroxytryptamine receptor 2C (Homo sapiens), item `COc1cc(CCN)c2c(c1OC)OCC2` = 118 nM

# value of Ki, 5-hydroxytryptamine receptor 2C (Homo sapiens), item COc1cc(CCN)cc(OC)c1OC [MESCALINE] = 303 nM
